Overview of recorded IC50 for various compounds
- test.system: CSF-1R (Homo sapiens)
- measurement.notes: Peptide (non-phosphorylated) assay, fluorescence polarization competition immunoassay
- Assay type: biochemical
- condition.parameters: 0.7 nM CSF-1R, 308 μM SYEGNSYTFIDPTQ peptide, 1 mM ATP, 80 min; mean of at least three determinations; read-out: c-fms Peptide IC50
# output: bare number, implied unit nM

CONC(=O)c1cn(-c2ccc3c(c2)CCC3)c2nc(Nc3cccc(CCN4CCN(C(C)=O)CC4)c3)ncc2c1=O [Cpd 204]: 1.2
CONC(=O)c1cn(C2CCCC2)c2nc(Nc3ccc(C4CCN(C(C)=O)CC4)cc3)ncc2c1=O [Cpd 46]: 2.6
CONC(=O)c1cn(-c2ccc3c(c2)CCC3)c2nc(Nc3ccc(CCCN4CCN(C)CC4)cc3)ncc2c1=O [Cpd 151]: 1.5

Moving on to another compound below.
Notebook: pull reported IC50 for CSF-1R (Homo sapiens), entry CONC(=O)c1cn(-c2ccc3c(c2)CCC3)c2nc(Nc3ccc([C@@]4(O)CCN(C)C[C@@H]4O)cc3)ncc2c1=O [Cpd 236]
0.47

###

- test.system: CSF-1R (Homo sapiens)
- measurement.notes: Peptide (non-phosphorylated) assay, fluorescence polarization competition immunoassay
- Format: biochemical
- condition.parameters: 0.7 nM CSF-1R, 308 μM SYEGNSYTFIDPTQ peptide, 1 mM ATP, 80 min; mean of at least three determinations; read-out: c-fms Peptide IC50
- Procedure: The kinase reaction was initiated by adding 1 μL of 10 mM ATP in assay buffer. […] The plates were covered and incubated at room temperature for 80 min. […] The plates were covered, incubated for 30 min at room temperature, and the fluorescence polarization was read on an Analyst plate reader (Molecular Devices).
endpoint.label: IC50 (nM)
Give the value, in units of nM, as a plain number.

Name the recorded IC50 for CONC(=O)c1cn(-c2ccc3c(c2)CCC3)c2nc(Nc3ccc(C4CCN(C(C)=O)CC4)cc3)ncc2c1=O .
1.2

Tell me the measured IC50 of CONC(=O)c1cn(-c2ccc3c(c2)CCC3)c2nc(Nc3ccc(C4CCN(C)CC4(F)F)cc3)ncc2c1=O (stereo not drawn) , please.
0.71

Give the measured IC50 of CONC(=O)c1cn(C2CCCCC2)c2nc(Nc3ccc(N4CCCC4)cc3)ncc2c1=O .
2.1

Would you mind telling me what IC50 value was observed for CONC(=O)c1cn(-c2ccc3c(c2)CCC3)c2nc(Nc3ccc(CCNC4C5CC6CC(C5)CC4C6)cc3)ncc2c1=O (stereo not drawn) ?
1.5

Reported IC50, molecule CONC(=O)c1cn(-c2ccc3c(c2)CCC3)c2nc(Nc3ccc(Cn4cncn4)cc3)ncc2c1=O : ____
0.9

For the molecule shown here, CONC(=O)c1cn(-c2ccc3c(c2)CCC3)c2nc(Nc3ccc(CN4CCN(C)CC4)cc3)ncc2c1=O , give the reported IC50.
1.1

###

- test.system: CSF-1R (Homo sapiens, UniProt P07333)
- Sequence (P07333 20-972): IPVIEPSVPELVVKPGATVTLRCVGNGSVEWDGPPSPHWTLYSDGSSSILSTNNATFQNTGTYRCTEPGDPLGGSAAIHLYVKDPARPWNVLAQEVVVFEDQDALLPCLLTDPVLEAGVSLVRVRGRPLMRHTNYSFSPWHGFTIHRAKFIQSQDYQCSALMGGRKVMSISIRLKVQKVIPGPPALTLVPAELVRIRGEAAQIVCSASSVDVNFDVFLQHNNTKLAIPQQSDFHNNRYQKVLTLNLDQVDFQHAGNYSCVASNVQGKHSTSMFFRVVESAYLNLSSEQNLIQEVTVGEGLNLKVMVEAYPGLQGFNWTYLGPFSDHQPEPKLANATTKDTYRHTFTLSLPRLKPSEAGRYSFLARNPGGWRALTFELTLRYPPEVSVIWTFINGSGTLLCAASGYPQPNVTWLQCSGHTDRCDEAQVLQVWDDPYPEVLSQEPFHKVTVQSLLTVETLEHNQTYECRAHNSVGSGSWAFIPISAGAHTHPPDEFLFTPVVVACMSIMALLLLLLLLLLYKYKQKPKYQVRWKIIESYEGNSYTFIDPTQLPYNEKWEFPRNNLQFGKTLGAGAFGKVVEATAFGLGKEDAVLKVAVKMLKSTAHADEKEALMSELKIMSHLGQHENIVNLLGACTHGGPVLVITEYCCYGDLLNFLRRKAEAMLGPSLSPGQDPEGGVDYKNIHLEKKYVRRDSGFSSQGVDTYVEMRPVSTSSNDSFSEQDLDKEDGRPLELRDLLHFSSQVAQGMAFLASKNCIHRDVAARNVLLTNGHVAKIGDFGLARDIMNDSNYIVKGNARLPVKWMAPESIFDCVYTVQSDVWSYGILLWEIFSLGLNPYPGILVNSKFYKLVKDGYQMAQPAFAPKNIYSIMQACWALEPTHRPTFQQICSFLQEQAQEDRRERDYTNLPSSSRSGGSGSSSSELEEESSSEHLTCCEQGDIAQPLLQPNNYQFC
- measurement.notes: Peptide (non-phosphorylated) assay, fluorescence polarization competition immunoassay
- Format: biochemical
- condition.parameters: 0.7 nM CSF-1R, 308 μM SYEGNSYTFIDPTQ peptide, 1 mM ATP, 80 min; mean of at least three determinations; read-out: c-fms Peptide IC50
endpoint.label: IC50
The number alone won't do; follow it with the unit.

CCc1ccc(-n2cc(C(=O)NOC)c(=O)c3cnc(Nc4ccc5c(c4)OCCOCCOCCOCCO5)nc32)cc1 [Cpd 297]: 0.4 nM
CONC(=O)c1cn(-c2ccc3c(c2)CCC3)c2nc(Nc3cccc(C(=O)NCCN4CCCC4)c3)ncc2c1=O [Cpd 192]: 6.3 nM
CCc1ccc(-n2cc(C(=O)NOC)c(=O)c3cnc(Nc4cccc(N(C)C)c4)nc32)cc1 [Cpd 319]: 1.7 nM
O=C(c1cn(C2CCCC2)c2nc(Nc3ccc(CCN4CCCC4)cc3)ncc2c1=O)N1CCOCC1 [Cpd 42]: 57 nM
CONC(=O)c1cn(-c2ccc(OC(F)(F)F)cc2)c2nc(Nc3ccc(CCc4n[nH]c(C)n4)cc3)ncc2c1=O [Cpd 191]: 5.6 nM

What does the data say about its IC50? Entry: CONC(=O)c1cn(-c2ccc3c(c2)CCC3)c2nc(Nc3ccc([C@]4(O)CCN(C)C[C@H]4O)cc3)ncc2c1=O [Cpd 250]
0.39 nM

Recorded IC50 of CCOC(=O)CN1CCC(c2ccc(Nc3ncc4c(=O)c(C(=O)NOC)cn(-c5ccc6c(c5)CCC6)c4n3)cc2)CC1 [Cpd 86] , please.
1.8 nM

Could you share which IC50 value was measured for CCc1ccc(-n2cc(C(=O)NOC)c(=O)c3cnc(Nc4ccc(OCCOC)c(OCCOC)c4)nc32)cc1 [Cpd 308] ?
0.9 nM

Given the compound CONC(=O)c1cn(-c2ccc3c(c2)CCC3)c2nc(Nc3ccc(OC4CCN(C)CC4)cc3)ncc2c1=O [Cpd 313] , what is its reported IC50?
0.3 nM

Bench note: what IC50 did CC(C)ONC(=O)c1cn(C2CC2)c2nc(Nc3ccc(CCN4CCCC4)cc3)ncc2c1=O [Cpd 143] show?
130 nM

Need IC50, item CONC(=O)c1cn(-c2ccc3c(c2)CCC3)c2nc(Nc3cccc(N4CCN(C(C)=O)CC4)c3)ncc2c1=O [Cpd 196]
1.7 nM

Data provenance is patent US20080114007A1.
